Procedure Summary: Multiple component PK study in rat plasma after p.o. GDDP (HPLC-MS)
Reported Conditions: Sprague-Dawley, rat, plasma, po, 0.8 g/kg
Reported AUC(0-inf) values follow for various compounds
Kindly answer with a numeric value in ng·h/mL, unit omitted.

// known answers, use as guide
Problem: # AUC(0-inf) lookup, item CC(C)=CCC[C@](C)(O[C@@H]1O[C@H](CO)[C@@H](O)[C@H](O)[C@H]1O)[C@H]1CC[C@]2(C)[C@@H]1[C@H](O)C[C@@H]1[C@@]3(C)CC[C@H](O)C(C)(C)[C@@H]3[C@@H](O[C@@H]3O[C@H](CO)[C@@H](O)[C@H](O)[C@H]3O[C@@H]3OC[C@@H](O)[C@H](O)[C@H]3O)C[C@]12C [R1, notoginsenoside R1]
Solution: 168

Problem: Recorded AUC(0-inf) for Cc1coc2c1C(=O)C(=O)c1c-2ccc2c1CCCC2(C)C [TS IIA, tanshinone (TS) IIA] , please?
Solution: 90.7

New cases:
Problem: Returns the measured AUC(0-inf) for the input compound. Input: Cc1coc2c1C(=O)C(=O)c1c-2ccc2c(C)cccc12 [TS I, tanshinone I]
Solution: 45.1

====

Procedure Summary: Multiple component PK study in rat plasma after p.o. GDDP (HPLC-MS)
Reported Conditions: Sprague-Dawley, rat, plasma, po, 0.4 g/kg
Value Type: AUC(0-inf) (ng·h/mL)
Expressed in ng·h/mL, but write only the number.

Problem: May I ask what AUC(0-inf) has been recorded for Cc1cccc2c3c(ccc12)C1=C(C(=O)C3=O)[C@@H](C)CO1 [DHTS I, dihydrotanshinone I] ?
Solution: 14.2

More entries:
Problem: Dear colleague, I am looking for the recorded AUC(0-inf) of the following compound: Cc1coc2c1C(=O)C(=O)c1c-2ccc2c1CCCC2(C)C
Solution: 71.7

Problem: Need AUC(0-inf), item C[C@H]1COC2=C1C(=O)C(=O)c1c2ccc2c1CCCC2(C)C
Solution: 1.72

Problem: // AUC(0-inf) lookup, key: CC(C)=CCC[C@](C)(O[C@@H]1O[C@H](CO)[C@@H](O)[C@H](O)[C@H]1O)[C@H]1CC[C@]2(C)[C@@H]1[C@H](O)C[C@@H]1[C@@]3(C)CC[C@H](O[C@@H]4O[C@H](CO)[C@@H](O)[C@H](O)[C@H]4O[C@@H]4O[C@H](CO)[C@@H](O)[C@H](O)[C@H]4O)C(C)(C)[C@@H]3CC[C@]12C [Rd, ginsenoside Rd]
Solution: 340

Problem: // lookup AUC(0-inf) for CC(C)=CCC[C@](C)(O[C@@H]1O[C@H](CO)[C@@H](O)[C@H](O)[C@H]1O)[C@H]1CC[C@]2(C)[C@@H]1[C@H](O)C[C@@H]1[C@@]3(C)CC[C@H](O)C(C)(C)[C@@H]3[C@@H](O[C@@H]3O[C@H](CO)[C@@H](O)[C@H](O)[C@H]3O[C@@H]3OC[C@@H](O)[C@H](O)[C@H]3O)C[C@]12C [R1, notoginsenoside R1]
Solution: 171

Problem: Fill in the blank: the reported AUC(0-inf) of Cc1coc2c1C(=O)C(=O)c1c-2ccc2c(C)cccc12 is ____.
Solution: 125

Problem: Which AUC(0-inf) is listed for CC(C)=CCC[C@](C)(O[C@@H]1O[C@H](CO[C@@H]2O[C@H](CO)[C@@H](O)[C@H](O)[C@H]2O)[C@@H](O)[C@H](O)[C@H]1O)[C@H]1CC[C@]2(C)[C@@H]1[C@H](O)C[C@@H]1[C@@]3(C)CC[C@H](O[C@@H]4O[C@H](CO)[C@@H](O)[C@H](O)[C@H]4O[C@@H]4O[C@H](CO)[C@@H](O)[C@H](O)[C@H]4O)C(C)(C)[C@@H]3CC[C@]12C [Rb1, ginsenoside Rb1] ?
Solution: 1930
